Tested on: DU-145
Measurement Protocol: NCI tumour cell line growth inhibition, 48 h
Activity calls are given as the source filed them. Rule as the data show it: active = GI50 up to about 1.1 µM and inactive = higher.
Result category, one only: active, inactive

Which result was noted for this molecule in the test: Cc1ccc(/N=C2N=C(Cl)/C(=C\c3ccccc3)N\2)cc1
inactive

Which result was noted for this molecule in the test: Cc1cc(C)n2c(nc3ccccc32)c1C#N
inactive

Which result was noted for this molecule in the test: N#Cc1c(N)nc2c3c1NC(=O)C(C(N)=O)C3c1ccccc1O2 (stereo unspecified)
inactive

Which result was noted for this molecule in the test: CC[N+](C)(CC)Cc1ccccc1[N+](=O)[O-]
inactive

Which result was noted for this molecule in the test: COCc1cc2c(cc1/C=C/[N+](=O)[O-])OCO2
inactive

Which result was noted for this molecule in the test: N#Cc1nc(NC(=O)c2ccccc2)sc1N
inactive

Which result was noted for this molecule in the test: O=C(/C=C/c1ccccc1)N1CCCCC1
inactive

Which result was noted for this molecule in the test: O=c1cc(-c2ccccc2)oc2ccc(Cl)cc12
inactive

Which result was noted for this molecule in the test: O=c1[nH]c2ccccc2c2nc3ccccc3n12
inactive

Which result was noted for this molecule in the test: Cc1ccc2nc3ccccc3c(C3C4C(=O)N(c5ccc(Br)cc5Cl)C(=O)C4ON3C(C(N)=O)c3ccccc3)c2c1 (stereo unspecified)
inactive

Which result was noted for this molecule in the test: O=C1C=CC(=O)c2c1ccc1c3ccccc3n(CCCCCCCCCCCCn3c4ccccc4c4ccc5c(c43)C(=O)C=CC5=O)c21
inactive

Which result was noted for this molecule in the test: CCOC(=O)Cn1c(=O)c2cc(C)cc3c(Cl)nc4c(OC)c(OC)cc1c4c32
inactive

Which result was noted for this molecule in the test: O=C1OC(C2(O)OC(=O)c3ccccc32)c2ccccc21 (stereo unspecified)
inactive

Which result was noted for this molecule in the test: COc1ccc(-c2nnc(CCCCCCCCc3nnc(-c4ccc(OC)cc4)n3N)n2N)cc1
inactive

Which result was noted for this molecule in the test: CCc1ccc(NC(=O)NC(=O)c2ccccc2[N+](=O)[O-])cc1Oc1ncc(Cl)cn1
active

Which result was noted for this molecule in the test: C[Si](C)(C)OC1c2[nH]c3ccccc3c2CN2C(=O)CCC12 (stereo unspecified)
inactive
